Target: H3R (Mus musculus)
Construct: gene Hrh3; native receptor, endogenous in mouse brain tissue membranes
Sequence (P58406 whole entry): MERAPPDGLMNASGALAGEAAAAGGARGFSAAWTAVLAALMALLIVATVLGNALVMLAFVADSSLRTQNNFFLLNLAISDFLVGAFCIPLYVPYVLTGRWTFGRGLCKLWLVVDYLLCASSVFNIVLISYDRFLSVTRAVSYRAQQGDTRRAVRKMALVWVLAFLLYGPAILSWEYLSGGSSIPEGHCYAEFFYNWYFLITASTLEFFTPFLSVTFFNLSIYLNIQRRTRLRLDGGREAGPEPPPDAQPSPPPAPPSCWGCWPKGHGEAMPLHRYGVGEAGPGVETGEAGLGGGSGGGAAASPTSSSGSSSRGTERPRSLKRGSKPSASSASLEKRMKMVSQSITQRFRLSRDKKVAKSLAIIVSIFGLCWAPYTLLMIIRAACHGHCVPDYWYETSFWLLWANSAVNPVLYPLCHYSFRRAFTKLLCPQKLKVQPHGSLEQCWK
Assay: tissue or organelle
Set-up: species or system brain tissue of 8-month-old Hdh^Q7/Q7 or Hdh^Q7/Q111 mice; radioligand binding to mouse brain region membranes, KD from saturation and competition curves
Settings: Cortex; 8-month-old Hdh^Q7/Q7 mice
reported.endpoint: Kd
// return the numeric value with its unit appended

Task: Query Kd for C[C@@H](N)Cc1c[nH]cn1 [[^3H] R-α-methyl histamine]
Output: 0.22 nM

====

Target: H3R (Mus musculus)
Construct: gene Hrh3; native receptor, endogenous in mouse brain tissue membranes
Assay: tissue or organelle
Design: species or system brain tissue of 8-month-old Hdh^Q7/Q7 or Hdh^Q7/Q111 mice; radioligand binding to mouse brain region membranes, KD from saturation and competition curves
Conditions: Striatum; 8-month-old Hdh^Q7/Q7 mice
reported.endpoint: pKd
// pKd here means minus log10 of the molar concentration (mol/L)

Task: Write down the reported pKd (system: H3R (Mus musculus)) of C[C@@H](N)Cc1c[nH]cn1 [[^3H] R-α-methyl histamine]
Output: 9.57
